Origin of values: patent EP4786492A1

targetEntity: monkey DLL3 on CHO-K1-cyno DLL3 cells (cynomolgus monkey)
Sequence (chain, as listed by the source limits assumed): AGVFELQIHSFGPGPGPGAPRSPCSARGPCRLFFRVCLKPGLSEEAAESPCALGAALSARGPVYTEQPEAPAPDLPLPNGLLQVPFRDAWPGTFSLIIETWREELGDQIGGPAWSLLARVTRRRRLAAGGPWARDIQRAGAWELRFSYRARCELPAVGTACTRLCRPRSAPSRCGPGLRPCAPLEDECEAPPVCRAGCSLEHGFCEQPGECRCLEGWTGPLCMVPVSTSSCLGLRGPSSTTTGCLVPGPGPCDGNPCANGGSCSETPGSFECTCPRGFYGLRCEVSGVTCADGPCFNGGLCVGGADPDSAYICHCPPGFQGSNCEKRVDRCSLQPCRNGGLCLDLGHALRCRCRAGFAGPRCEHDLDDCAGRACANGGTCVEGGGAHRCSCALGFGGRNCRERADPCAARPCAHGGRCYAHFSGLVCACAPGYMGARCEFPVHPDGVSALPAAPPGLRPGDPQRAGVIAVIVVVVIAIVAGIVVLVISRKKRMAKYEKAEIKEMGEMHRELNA
protocolNotes: FACS, CHO-K1-cyno DLL3 cells, 0.00128 nM antibody
measurementName: MFI (MFI)
Give your result in MFI as a bare value.

Solved entries (count: 2):
>>> recordedmeasurement("Hab008L1H2a-hFc (scFv, part only; not given: VL-VH linker and human IgG1 Fc, V domains shown, not shown: another chain or arm of the molecule; a dimerising Fc or GST; small tags and cut ends) VL: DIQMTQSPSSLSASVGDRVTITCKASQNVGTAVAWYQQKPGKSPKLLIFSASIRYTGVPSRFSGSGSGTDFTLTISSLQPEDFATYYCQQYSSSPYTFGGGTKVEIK VH: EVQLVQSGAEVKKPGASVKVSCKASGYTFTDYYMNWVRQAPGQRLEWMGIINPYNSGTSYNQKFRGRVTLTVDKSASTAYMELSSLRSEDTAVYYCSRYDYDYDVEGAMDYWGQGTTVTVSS")
129
>>> recordedmeasurement("Hab015VL4VH1b-hFc (scFv, part only; not given: VL-VH linker and human IgG1 Fc, V domains shown, not shown: another chain or arm of the molecule; a dimerising Fc or GST; small tags and cut ends) VL: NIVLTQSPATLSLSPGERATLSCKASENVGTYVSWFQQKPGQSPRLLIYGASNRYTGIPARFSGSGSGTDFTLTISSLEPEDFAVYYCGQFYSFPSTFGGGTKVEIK VH: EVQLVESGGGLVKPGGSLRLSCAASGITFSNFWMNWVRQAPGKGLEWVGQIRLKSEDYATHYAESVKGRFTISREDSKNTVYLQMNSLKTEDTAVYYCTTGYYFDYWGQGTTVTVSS")
117

Reported MFI, binder Hab015VL4VH5a-hFc (scFv, part only; not given: VL-VH linker and human IgG1 Fc, V domains shown, not shown: another chain or arm of the molecule; a dimerising Fc or GST; small tags and cut ends) VL: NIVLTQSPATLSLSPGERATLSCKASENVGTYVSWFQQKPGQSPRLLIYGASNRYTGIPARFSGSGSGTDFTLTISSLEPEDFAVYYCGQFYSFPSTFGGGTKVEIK VH: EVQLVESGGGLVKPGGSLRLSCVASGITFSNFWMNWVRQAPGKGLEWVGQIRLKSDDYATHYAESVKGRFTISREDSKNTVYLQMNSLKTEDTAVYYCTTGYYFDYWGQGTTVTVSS : ____
122
